Origin of the recorded values: patent US10351530B2

# System: NQO1 specific enzyme activity in BEAS-2B cells
# assay.method.text: BEAS-2B NQO1 MTT Assay
# Assay type: cell-based
# measurement.parameters: Homo sapiens, BEAS-2B, 48 h, NQO1 specific activity induction
pEC50: −log10 of the molar value. Structures can show the parent of a compound that is named as a salt.
Quick list: pEC50 per entry.

- compound: "O=C(O)c1cnn(-c2cccc(C3CCCN(CC4CCCCC4)C3)c2)c1C1CC1 (stereo not drawn) [Example 28, Hydrochloride]"
  pEC50: "5.00 to 6.00"
- compound: "CN(C(=O)C1CCCC(c2cccc(-n3ncc(C(=O)O)c3C3CC3)c2)C1)C1CCCCC1 (stereo not drawn)"
  pEC50: "5.00 to 6.00"
- compound: "CC1(C)CCCN1C(=O)C1CCCC(c2cccc(-n3ncc(C(=O)O)c3C3CC3)c2)C1 (racemic)"
  pEC50: "5.00 to 6.00"
- compound: "O=C(O)c1cnn(-c2cccc(C3CCC(n4ncc5c4CCCC5=O)C3)c2)c1C1CC1 (stereo not drawn)"
  pEC50: "5.00 to 6.00"
- compound: "CCC[C@@H]1CCCCN1C(=O)N1CCCC(c2cccc(-n3ncc(C(=O)O)c3[C@@H]3C[C@H]3c3cn(C)nn3)c2)C1 (stereo partly drawn)"
  pEC50: "5.00 to 6.00"
- compound: "O=C(O)c1cnn(-c2cccc(C3CCCC(C(=O)N4CCCC45CCCCC5)C3)c2)c1C1CC1 (racemic)"
  pEC50: "5.00 to 6.00"
- compound: "CC1CCN(C(=O)C2CCCC(c3cccc(-n4ncc(C(=O)O)c4C4CC4)c3)C2)C1 (racemic)"
  pEC50: "5.00 to 6.00"
- compound: "O=C(O)c1cnn(-c2cccc(C3CCCC(C(=O)N4CCCC4C4CC4)C3)c2)c1C1CC1 (racemic)"
  pEC50: "6.00 to 7.00"
- compound: "CC(C)CCC1CCCN1C(=O)C1CCCC(c2cccc(-n3ncc(C(=O)O)c3C3CC3)c2)C1 (racemic)"
  pEC50: "6.00 to 7.00"
- compound: "O=C(O)c1cnn(-c2cccc(C3CCCC(n4ncc5c4CCCCC5)C3)c2)c1C1CC1 (racemic)"
  pEC50: "5.00 to 6.00"
- compound: "CC1(C)CCc2cnn([C@@H]3CCC[C@@H](c4cccc(-n5ncc(C(=O)O)c5C5CC5)c4)C3)c21 (racemic)"
  pEC50: "6.00 to 7.00"
- compound: "O=C(O)c1cnn(-c2cccc(C3=CC(C(=O)N4CCCCCC4)CCC3)c2)c1C1CC1 (stereo not drawn)"
  pEC50: "5.00 to 6.00"
- compound: "O=C(O)c1cnn(-c2cccc([C@H]3CCC[C@@H](C(=O)N4CCCCC4)C3)c2)c1C1CC1 (racemic)"
  pEC50: "5.00 to 6.00"
- compound: "CCCCC1CCCC1N(C)C(=O)C1CCCC(c2cccc(-n3ncc(C(=O)O)c3C3CC3)c2)C1 (stereo not drawn)"
  pEC50: "6.00 to 7.00"
- compound: "CC(C)(C)OC(=O)N1CCCC(c2cccc(-n3ncc(C(=O)O)c3C3CC3)c2)C1 (stereo not drawn)"
  pEC50: "5.00 to 6.00"

---

# measurement.target: Keap1/NRF2 (Homo sapiens)
# Construct: Keap1 (321-609) is diluted to 40 nM (2×) in 1× assay buffer
# Sequence (Q14145 321-609): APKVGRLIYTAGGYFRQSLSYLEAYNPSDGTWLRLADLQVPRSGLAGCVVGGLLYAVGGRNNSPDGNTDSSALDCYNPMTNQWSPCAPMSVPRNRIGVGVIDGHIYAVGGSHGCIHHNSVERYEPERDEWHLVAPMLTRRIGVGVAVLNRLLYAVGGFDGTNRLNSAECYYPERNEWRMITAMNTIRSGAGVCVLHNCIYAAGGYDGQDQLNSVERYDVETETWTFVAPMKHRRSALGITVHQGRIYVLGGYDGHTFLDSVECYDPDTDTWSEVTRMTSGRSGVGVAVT
# assay.method.text: NRF2-Keap1 FP Assay (Kelch domain (321-609) of Keap1, TAMRA-labeled NRF2 ETGE peptide)
# measurement.parameters: Keap1 (321-609) 20 nM, Tamra labeled peptide 8 nM
pIC50: −log10 of the molar value. Where a name gives a salt, the structure may show the parent alone.
Here, each record is paired with measured pIC50 data.
readout.kind: pIC50

- compound: "CN(C)C(=O)[C@H]1CCC[C@@H](c2cccc(-n3ncc(C(=O)O)c3C3CC3)c2)C1 (racemic)"
  result: "6.00 to 7.00"
- compound: "O=C(O)c1cnn(-c2cccc(C3CCC(n4ncc5c4CCC5)C3)c2)c1C1CC1 (mixture of isomers)"
  result: "6.00 to 7.00"
- compound: "CCCC[C@@H]1CCCN1C(=O)[C@H]1CCC[C@@H](c2cccc(-n3ncc(C(=O)O)c3C3CC3)c2)C1 [Example 17f]"
  result: "7.00 to 8.00"
- compound: "CCC[C@@H]1CCCCN1C(=O)N1CCCC(c2cccc(-n3ncc(C(=O)O)c3[C@@H]3C[C@H]3c3cn(C)nn3)c2)C1 (some centres unmarked)"
  result: "6.00 to 7.00"
- compound: "O=C(O)c1cnn(-c2cccc(C3CCCC(n4ncc5c4CCCC5)C3)c2)c1C1CC1 (racemic)"
  result: "6.00 to 7.00"
- compound: "CCCC1CCCCN1C(=O)[C@H]1CCC[C@@H](c2cccc(-n3ncc(C(=O)O)c3C3CC3)c2)C1 (mixture of isomers)"
  result: "6.00 to 7.00"
- compound: "Cn1cc([C@@H]2C[C@H]2c2c(C(=O)O)cnn2-c2cccc(C3CCCN(CCc4ccccc4)C3)c2)nn1 (some centres unmarked) [Example 29, Hydrochloride]"
  result: "6.00 to 7.00"
- compound: "CC1(C)CCc2cnn([C@@H]3CCC[C@@H](c4cccc(-n5ncc(C(=O)O)c5C5CC5)c4)C3)c21 (racemic)"
  result: "5.00 to 6.00"

---

This section presents compounds with their documented pIC50 values.
# measurement.target: NRF2/Keap1 (Homo sapiens, UniProt Q14145)
# Construct: full length NRF2 protein and full length Keap1 protein (Keap1 exists a dimer) are used
# Sequence (Q14145 whole entry): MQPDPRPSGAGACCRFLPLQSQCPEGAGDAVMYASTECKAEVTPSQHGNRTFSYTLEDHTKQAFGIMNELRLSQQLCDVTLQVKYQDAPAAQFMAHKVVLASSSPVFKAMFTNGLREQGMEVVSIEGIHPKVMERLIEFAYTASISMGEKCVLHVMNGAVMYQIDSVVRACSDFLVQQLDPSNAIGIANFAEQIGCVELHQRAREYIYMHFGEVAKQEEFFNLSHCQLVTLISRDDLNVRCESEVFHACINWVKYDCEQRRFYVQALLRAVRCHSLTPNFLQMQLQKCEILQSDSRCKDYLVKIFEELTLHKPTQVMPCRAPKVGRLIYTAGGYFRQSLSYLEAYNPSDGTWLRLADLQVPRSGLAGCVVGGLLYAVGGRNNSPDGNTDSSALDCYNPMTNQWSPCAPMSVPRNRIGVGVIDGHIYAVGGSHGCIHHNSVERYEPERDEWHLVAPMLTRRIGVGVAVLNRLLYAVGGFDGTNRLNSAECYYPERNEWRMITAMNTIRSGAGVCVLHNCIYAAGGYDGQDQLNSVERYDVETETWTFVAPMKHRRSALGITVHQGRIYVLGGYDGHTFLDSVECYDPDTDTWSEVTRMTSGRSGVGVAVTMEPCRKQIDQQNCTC
# assay.method.text: NRF2-Keap1 TR-FRET Low Protein Assay (full length NRF2 and full length Keap1)
# Format: binding
# measurement.parameters: low protein: 1.25 nM Keap1 FlagHis, 2.5 nM biotin-NRF2 added
# Description: In the NRF2-Keap1 TR-FRET (time-resolved fluorescence resonance energy transfer) low protein assay, full length NRF2 protein and full length Keap1 protein (Keap1 exists a dimer) are used. The assay detects a compound's ability to displace the binding of Keap1 FlagHis with biotinylated Avi-NRF2 protein. Biotin-NRF2 binds to streptavidin-europium (a component of the detection mix) and Keap1 FlagHis is recognized by anti-Flag APC (allophycocyanin) antibody (also a component of the detection mix). […]
pIC50: −log10 of the molar value. Structures can show the parent of a compound that is named as a salt.

- compound: "Cn1cc([C@@H]2C[C@H]2c2c(C(=O)O)cnn2-c2cccc(C3CCCN(C(=O)CC4CCCCC4)C3)c2)nn1 (stereo partly shown) [Example 31]"
  pIC50: "7.00 to 8.00"
- compound: "Cn1cc(C2CC2c2c(C(=O)O)cnn2-c2cccc([C@H]3CCC[C@H](n4ncc5c4C(C)(C)CC5)C3)c2)nn1 (stereo partly shown) [Example 40]"
  pIC50: "7.00 to 8.00"
- compound: "Cn1cc([C@@H]2C[C@H]2c2c(C(=O)O)cnn2-c2cccc(C3CCCN(C(=O)c4ccccc4)C3)c2)nn1 (stereo partly shown) [Example 33]"
  pIC50: "7.00 to 8.00"
- compound: "CCCCC1CCc2cnn([C@@H]3CCC[C@@H](c4cccc(-n5ncc(C(=O)O)c5C5CC5)c4)C3)c21 (stereo partly shown) [Example 38]"
  pIC50: "4.00 to 5.00"
- compound: "Cn1cc([C@@H]2C[C@H]2c2c(C(=O)O)cnn2-c2cccc(C3CCCN(C(=O)OC(C)(C)C)C3)c2)nn1 (stereo partly shown) [Example 26]"
  pIC50: "7.00 to 8.00"
- compound: "CCCCC1CCCC1N(C)C(=O)C1CCCC(c2cccc(-n3ncc(C(=O)O)c3C3CC3)c2)C1 (stereo not shown) [Example 41]"
  pIC50: "6.00 to 7.00"
- compound: "Cn1cc(C2CC2c2c(C(=O)O)cnn2-c2cccc([C@@H]3CCC[C@H](n4ncc5c4C(C)(C)CC5)C3)c2)nn1 (stereo partly shown) [Example 39]"
  pIC50: "> 8.00"
- compound: "O=C(O)c1cnn(-c2cccc(C3=CC(C(=O)N4CCCCCC4)CCC3)c2)c1C1CC1 (stereo not shown) [Example 19]"
  pIC50: "6.00 to 7.00"
- compound: "CCC[C@@H]1CCCCN1C(=O)N1CCCC(c2cccc(-n3ncc(C(=O)O)c3[C@@H]3C[C@H]3c3cn(C)nn3)c2)C1 (stereo partly shown) [Example 34]"
  pIC50: "7.00 to 8.00"
- compound: "Cn1cc([C@@H]2C[C@H]2c2c(C(=O)O)cnn2-c2cccc(N3CCC[C@@H](OCC4CCCCC4)C3)c2)nn1 [Example 43]"
  pIC50: "7.00 to 8.00"
- compound: "Cn1cc([C@@H]2C[C@H]2c2c(C(=O)O)cnn2-c2cccc(C3CCCN(C(=O)C(C)(C)C)C3)c2)nn1 (stereo partly shown) [Example 32]"
  pIC50: "7.00 to 8.00"
- compound: "CCCCC1CCCN1C(=O)C1CCCC(c2cccc(-n3ncc(C(=O)O)c3C3CC3)c2)C1 (racemic) [Example 8c]"
  pIC50: "7.00 to 8.00"
- compound: "CC(C)CCC1CCCN1C(=O)C1CCCC(c2cccc(-n3ncc(C(=O)O)c3C3CC3)c2)C1 (racemic) [Example 11]"
  pIC50: "7.00 to 8.00"
- compound: "O=C(O)c1cnn(-c2cccc(C3CCCC(C(=O)N4CCCC4C4CC4)C3)c2)c1C1CC1 (racemic) [Example 12]"
  pIC50: "7.00 to 8.00"
- compound: "Cn1cc([C@@H]2C[C@H]2c2c(C(=O)O)cnn2-c2cccc(N3CCC[C@@H](CCC4CCCCC4)C3)c2)nn1 [Example 36d]"
  pIC50: "7.00 to 8.00"
- compound: "Cn1cc([C@@H]2C[C@H]2c2c(C(=O)O)cnn2-c2cccc(C3CCCN(CCc4ccccc4)C3)c2)nn1 (stereo partly shown) [Example 29, Hydrochloride]"
  pIC50: "7.00 to 8.00"
- compound: "CC(C)(C)OC(=O)N1CCCC(c2cccc(-n3ncc(C(=O)O)c3C3CC3)c2)C1 (stereo not shown) [Example 27]"
  pIC50: "5.00 to 6.00"
- compound: "CCCCC1CCCN1C(=O)C1CCCC(c2cccc(-n3ncc(C(=O)O)c3C3CC3c3cn(C)nn3)c2)C1 (stereo not shown) [Example 42]"
  pIC50: "> 8.00"
- compound: "Cn1cc([C@@H]2C[C@H]2c2c(C(=O)O)cnn2-c2cccc(N3CCC[C@H](CCC4CCCCC4)C3)c2)nn1 [Example 36c]"
  pIC50: "7.00 to 8.00"
